# test.target: T1, human IL-33 (mm2) (human, UniProt O95760 112-270)
# T1 chain: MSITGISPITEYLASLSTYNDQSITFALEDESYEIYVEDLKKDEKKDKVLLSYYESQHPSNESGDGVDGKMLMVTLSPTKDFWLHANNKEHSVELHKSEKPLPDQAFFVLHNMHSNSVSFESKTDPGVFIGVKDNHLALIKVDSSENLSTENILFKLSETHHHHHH
# experiment.description: cell-based or functional assay
value.kind: IC50, HEK293 ST2 NFkB (pM)
State just the number; it will be interpreted in pM.

What does the record list as IC50, HEK293 ST2 NFkB for rat 7E8 (7E8 hybridoma) (antibody, V domains shown) VH: EVQLVETGGGLVQPGRSLKLSCKTSGFTFSSYWMYWIRQAPGKGLEWVSSITPNGGNTYYPDSVKGRFTISRDNAENTIYLQMSSLRSEDTATYFCAKGHYYYTSYSLGYWGQGSLVTVSS VL: EIQMTQSPSVLSASVGDRVTLSCKASQNINKHLDWYQQKLGEAPKLLIYFTNNLQTGIPSRFSGSGSGTDCTLTINSLQPGDVATYFCFQYNNGWTFGGGTKLELD ?
24
